- method-description: solvent given as SMILES
- settings: in CCCCCCCCCCO
solvation free energy, 298 K for assorted compounds
readout-type: solvation free energy, 298 K

1) O=C(O)c1cc([N+](=O)[O-])cc([N+](=O)[O-])c1 : -13.6 kcal/mol
2) c1ccc2c(c1)Cc1ccccc1O2 : -9.67 kcal/mol
3) CC(C)Cc1ccc(C(C)C(=O)O)cc1 (configuration not stated) : -13 kcal/mol
4) [N-]=[N+]=O : -0.55 kcal/mol
5) CN(C)C(=O)Nc1ccc(Cl)cc1 : -12.8 kcal/mol
6) CCCCCO : -6.39 kcal/mol
7) CC(C)CC(C)(C)C : -3.9 kcal/mol
8) c1ccccc1 : -3.59 kcal/mol
9) O=C(C(=O)c1ccccc1)c1ccccc1 : -10.9 kcal/mol
10) c1ccc2c(c1)Nc1ccccc1S2 : -13 kcal/mol
11) CCCC#N : -3.92 kcal/mol
12) O=C=O : -0.13 kcal/mol
13) CC(C)OC(C)C : -3.43 kcal/mol
14) O=C(O)c1cccc(Cl)c1 : -10.3 kcal/mol
15) CC(=O)Oc1ccccc1C(=O)O : -12.9 kcal/mol
16) O=c1c2ccccc2sc2ccccc12 : -12.1 kcal/mol
17) O=O : 1.09 kcal/mol

----------
- method-description: solvent given as SMILES
- settings: in CCC#N
Entries annotated with measured solvation free energy, 298 K
readout-type: solvation free energy, 298 K (kcal/mol)

1) C1CCCCC1 : -3.57
2) CCCC(C)C : -2.84
3) C=CCCCCC : -4.05
4) C=CCCC : -2.86
5) c1ccccc1 : -4.47
6) Cc1ccccc1 : -5.16
7) CC(C)CC(C)C : -3.18

----------
- method-description: solvent given as SMILES
- settings: in CC(C)CC(C)(C)C
readout-type: solvation free energy, 298 K (kcal/mol)

1. ClCCl : -2.84
2. CC(C)CO : -3.55
3. c1ccc2c(c1)Cc1ccccc1O2 : -9.39
4. CCCCCCCO : -5.82
5. CCCC(C)C : -3.72
6. C=CCC : -2.26
7. c1ccc2c(c1)-c1cccc3cccc-2c13 : -11.2
8. [2H][2H] : 1.27
9. O=c1c2ccccc2sc2ccccc12 : -10.7
10. CCBr : -2.95
11. CN(C)N=O : -3.83
12. CC(C)(C)Cl : -3.29
13. Nc1cccc([N+](=O)[O-])c1 : -8.01
14. CC(C)CC(C)C : -4.15
15. CCC[N+](=O)[O-] : -3.94
16. CCCCCO : -4.37
17. CCCS : -3.78
18. COC(=O)c1ccccc1 : -6.71
19. Cc1ccccc1 : -4.66
20. Clc1ccccc1 : -4.92
21. II : -4.5
22. CCN(CC)N=O : -5.28
23. Fc1c(F)c(F)c(F)c(F)c1F : -3.53
24. Cc1ccccc1C : -5.5
25. CC(C)OC(C)C : -3.78
26. O=C(C(=O)c1ccccc1)c1ccccc1 : -10.2
27. c1cc2c3c(cccc3c1)CC2 : -8.67
28. CCCCN(CCCC)N=O : -7.84
29. c1ccc2c(c1)Nc1ccccc1S2 : -10.9
30. CN(C)C(=O)Nc1ccc(Cl)cc1 : -9.58
31. FS(F)(F)(F)(F)F : -0.47
32. O=[N+]([O-])c1cc(Cl)ccc1Cl : -7.63
33. O=S=O : -1.17
34. CCCO : -3
35. Cc1cccc(C)c1O : -6.55
36. Cc1cc(C)cc(O)c1 : -6.48
37. CCCN(C)N=O : -4.99
38. CCCC=O : -3.45
39. [N-]=[N+]=O : -0.69

----------
- method-description: solvent given as SMILES
- settings: in CCCCCCCO
Below, each of the compounds is paired with its reported solvation free energy, 298 K value.
readout-type: solvation free energy, 298 K (kcal/mol)

1) O=C(C(=O)c1ccccc1)c1ccccc1 : -10.9
2) CN(C)C(=O)Nc1ccc(Cl)cc1 : -13
3) O=C(O)c1cc([N+](=O)[O-])cc([N+](=O)[O-])c1 : -13.7
4) c1cc2c3c(cccc3c1)CC2 : -8.75
5) O=O : 1.02
6) O=c1c2ccccc2sc2ccccc12 : -12
7) C1CCCC1 : -3.1
8) O=C(O)c1ccc([N+](=O)[O-])cc1 : -11.9

----------
- method-description: solvent given as SMILES
- settings: in CCOC(=O)c1ccccc1C(=O)OCC
This listing pairs compounds with measured solvation free energy, 298 K.
readout-type: solvation free energy, 298 K (kcal/mol)

1) COC(C)=O : -3.48
2) ClCCl : -3.51
3) CCCO : -4.09
4) C=CCCC : -2.33
5) C1CCCCC1 : -3.24
6) CC(C)CO : -4.88
7) C=CCCCCC : -3.53
8) Cc1ccccc1 : -4.68
9) ClC(Cl)(Cl)Cl : -3.77
10) c1ccccc1 : -4.06

----------
- method-description: solvent given as SMILES
- settings: in CCCCOC(=O)c1ccccc1C(=O)OCCCC
readout-type: solvation free energy, 298 K (kcal/mol)

1. C=CCCCCC : -3.98
2. C1CCCCC1 : -3.73
3. C=CCCC : -2.7
4. Cc1ccccc1 : -4.82
5. c1ccccc1 : -4.23

----------
- method-description: solvent given as SMILES
- settings: in CCN1CCCC1=O
Threshold -4 kcal/mol. solvation free energy, 298 K below it: rule met. solvation free energy, 298 K at it or above: rule not met.

1. CC=O : rule not met
2. C1CCCCC1 : rule not met
3. c1ccccc1 : rule met
4. CC(C)OC(C)C : rule not met
5. C=CCCCCC : rule not met
6. C1=CCCCC1 : rule not met
7. ClCCl : rule met
8. Cc1ccccc1 : rule met
9. C=CCCC : rule not met

----------
- method-description: solvent given as SMILES
- settings: in CCCOCCO
readout-type: solvation free energy, 298 K

1. CC(=O)Nc1ccc(O)cc1 : -16.1 kcal/mol
2. O=c1c2ccccc2sc2ccccc12 : -12.4 kcal/mol
3. O=C(O)c1ccc([N+](=O)[O-])cc1 : -12.6 kcal/mol
4. O=C(C(=O)c1ccccc1)c1ccccc1 : -11.8 kcal/mol

----------
- method-description: solvent given as SMILES
- settings: in CCCCCCO
Entries annotated with measured solvation free energy, 298 K
readout-type: solvation free energy, 298 K (kcal/mol)

1. CCCC#N : -4.32
2. CCCOCCC : -4.12
3. c1cc2c3c(cccc3c1)CC2 : -8.72
4. CCCCCCCO : -8.08
5. c1ccc2c(c1)Cc1ccccc1O2 : -9.63
6. Cc1ccccc1 : -4.53
7. O=C(O)c1ccc([N+](=O)[O-])cc1 : -12
8. O=[N+]([O-])c1cc(Cl)ccc1Cl : -8.22
9. O=C1c2ccccc2C(=O)c2c(Cl)cccc21 : -13.1

----------
- method-description: solvent given as SMILES
- settings: in CCCCCO
solvation free energy, 298 K strictly under -9 kcal/mol means Yes; at -9 kcal/mol or over means No.

1. O=O : No
2. S=C=S : No
3. O=C(O)c1cc([N+](=O)[O-])cc([N+](=O)[O-])c1 : Yes
4. CCCC(C)C : No
5. CC(C)CC(C)(C)C : No
6. O=C(C(=O)c1ccccc1)c1ccccc1 : Yes
7. C=CCCCCC : No
8. CC(C)CO : No
9. CC(C)Cc1ccc(C(C)C(=O)O)cc1 (stereo not drawn) : Yes
10. O=C(O)CCCCCCCCC(=O)O : Yes
11. ClCCl : No
12. O=c1c2ccccc2sc2ccccc12 : Yes
13. C1CCCCC1 : No
14. CCCC=O : No
15. O=C(O)c1cccc(Cl)c1 : Yes
16. Cc1ccccc1C : No
17. c1ccccc1 : No

----------
We begin with a simple list: items and their reported solvation free energy, 298 K.
- method-description: solvent given as SMILES
- settings: in CCCCCCO
readout-type: solvation free energy, 298 K (kcal/mol)

1. C=C(C)C1CCC2(CO)CCC3(C)C(CCC4C5(C)CCC(O)C(C)(C)C5CCC43C)C12 (configuration not stated) : -27.3
2. CC(C)CC(C)(C)C : -4.07
3. O=C(C(=O)c1ccccc1)c1ccccc1 : -10.9
4. c1ccc2c(c1)-c1cccc3cccc-2c13 : -11.7
5. COC(=O)c1ccc(O)cc1 : -11.9
6. O=C(O)c1cccc(C(=O)O)c1 : -13.2
7. O=c1c2ccccc2sc2ccccc12 : -12
